These measurements were taken from patent US20250027068A1.

- tested_target: pooled human IgG (human IgG1, 2, 3 and 4) (human); further: test concentration or dose not given here
- assay_protocol: cell-based or functional assay
Each record here notes measured Enzyme Activity Endpoint Assay: IgG.
Numeric answer only, unit ng/µL assumed.

Reported Enzyme Activity Endpoint Assay: IgG of PRT-396 (enzyme) MVTSVWTKGVTPPADFTQGEDVFHAPYVANQGWYDITKTFNGKDDLLCGAATAGNMLHWWFDQNKEYIEAYLKKHPEKQKIMFGDQELLDVRKAINTKGSQKNSELFNYFRDKAFPNLSARRLGVMPDLVLDMFINGYYLNVTKTQTTDVNRTYQEKDKRGGIFDAVFTRGDQSKLLTSRHDFKEKGLKEISDLIKQELTEGKALGLSHTTANVRINHVINLWGADFDSDGNLKAIYVTDSDSNASIGMKKYFVGVNSAGKVAISAKEIKEDNIGAQVLGLFTLSTGQDIWNQTN : 1010

New cases:
PRT-379 (enzyme) MVTSVWTKGVTPPTNFTYGEDVLHAPYVANQGWYDITKTFNGKDDLLCGAATAGNMLHWWFDQNKEQIENYLKKHPEKQKINFNGEQMFDVKEAIDTKDSQLDSKLFEYFKEKAFPYLSTKHLGVFPDHVIDMFINGYRLSLLNHGPTPVKRGSKDPRGGIFDAVFTRGDQSKLLTNRHDFKEKTLKEISDLIKQELTEGKALGISHTYANVRINHVINLWGADFDAEGNLEAIYVTDSDSNASIGMKKYFVGVNSNGKVAISAKEIEEDNIGAQVLGLFTLSTGQDIWNQTN yielded Enzyme Activity Endpoint Assay: IgG of 0
